Target: T1, extracellular domain (ECD) of recombinant human Sortilin with a C-terminal HIS tag (ECD-huSortilin-HIS) (human, UniProt Q99523 78-755)
T1 construct: Bought (R&D Systems); also called human sortilin-ECD; not shown: C-terminal HIS tag
T1 sequence: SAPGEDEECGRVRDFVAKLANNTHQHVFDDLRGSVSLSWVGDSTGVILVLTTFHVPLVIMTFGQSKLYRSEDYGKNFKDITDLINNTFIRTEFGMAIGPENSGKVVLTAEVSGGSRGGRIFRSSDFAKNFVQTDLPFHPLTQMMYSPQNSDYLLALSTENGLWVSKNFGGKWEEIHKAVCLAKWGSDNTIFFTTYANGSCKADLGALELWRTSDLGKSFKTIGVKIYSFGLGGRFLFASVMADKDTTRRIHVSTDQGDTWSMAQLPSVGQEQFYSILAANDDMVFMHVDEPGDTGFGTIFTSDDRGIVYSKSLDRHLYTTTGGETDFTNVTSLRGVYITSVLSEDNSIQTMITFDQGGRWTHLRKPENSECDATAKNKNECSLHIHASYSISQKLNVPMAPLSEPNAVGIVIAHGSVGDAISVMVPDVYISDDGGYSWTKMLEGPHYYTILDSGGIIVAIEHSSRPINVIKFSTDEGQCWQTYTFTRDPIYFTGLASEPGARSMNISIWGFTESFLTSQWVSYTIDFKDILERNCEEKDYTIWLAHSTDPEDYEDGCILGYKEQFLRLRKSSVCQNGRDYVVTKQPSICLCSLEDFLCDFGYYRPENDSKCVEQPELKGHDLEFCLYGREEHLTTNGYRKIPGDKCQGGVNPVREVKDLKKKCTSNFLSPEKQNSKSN
Experiment: blocking ELISA, coated ECD-huSortilin-HIS; blocked ligand huPGRN-Biotin
Reported % Blocking at 7.4nM mAb is given for each of the following binders.

BINDER	UNIT ANNOTATION	% Blocking at 7.4nM mAb
mouse monoclonal antibody 2P22 (antibody, mouse IgG2b, V domains shown, mouse IgG2b, kappa) VH: EVQLVESGGDLVKPGGSLKLSCAASGFTFSIYGMSWVRQTPDKKLEWVAAISSGGIYTYYPDSVKGRFTISRDNAKNTLYLQMSSLKSADTAMYYCTRNDYDWFAYWGQGTLVTVSA VL: DIQMTQSPSSLSASLGERVSLTCRASQDIGSSLNWLQQEPDGTIKRLIYATSSLDSGVPKRFSGSRSGSDYSLTISSLESEDFVDYYCLQYASSPYTFGGGTKLEIK	%	67
mouse monoclonal antibody 2C14 (antibody, mouse IgG1, V domains shown, mouse IgG1, kappa) VH: EVQLVESGGDLVKPGGSLKLSCAASGFTFNTHGMSWVRQTPDKSLEWVATISTGGFYTSYPDSVKGRFTISRDNAKNTLFLQMSSLKSEDTAMYYCAKSSSHWYFDVWGTGTTVTVSS VL: DILMTQSPSSMSVSLGDTVSITCHASQGISSNIGWLQQKPGKSFKGLIYHGTNLEDGVPSRFSGSGSGADYSLTISSLEYEDFADYYCVQYAHFPYTFGGGTKLEIK	%	79

Values were extracted from patent US20230235048A1.
